I'd be grateful if you could share measured IC50 for these entries.
# Test system: Aβ production in SK-N-BE(2) neuroblastoma cells
# procedure summary: Test Example 3: Aβ production inhibition in cell (Aβ40 ELISA, SK-N-BE(2))
# measurement parameters: Homo sapiens, SKNBE2, 6 h, read-out: Test Example 3 IC50, SK-N-BE(2) cells, 6 hours, Aβ40 ELISA normalized by viability
Record the result as number plus unit.

Give the reported IC50 for this compound. CNC(=O)c1cc(F)cc(-c2ccc3c(c2)C2(COC(N)=N2)C2(COC2)C(C)(C)O3)c1 (stereo not drawn)
3.1 µM

Give the reported IC50 for this compound. CCc1cncc(-c2ccc3c(c2)C2(COC(N)=N2)C2(CC2)CO3)c1 (stereo not drawn)
3.3 µM

Give the reported IC50 for this compound. NC1=NC2(CO1)c1cc(-c3cncc(Cl)c3)ccc1OCC21CC1 (stereo not drawn)
0.46 µM

Give the reported IC50 for this compound. COc1cc(-c2ccc3c(c2)C2(COC(N)=N2)C2(COC2)C2(CCC2)O3)c(F)cn1 (stereo not drawn)
1.1 µM

Give the reported IC50 for this compound. COc1cncc(-c2ccc3c(c2)C2(COC(N)=N2)C2(CC2)CO3)c1 (stereo not drawn)
0.34 µM

Give the reported IC50 for this compound. NC1=NC2(CO1)c1cc(-c3cncnc3)ccc1OCC21CC(F)(F)C1 (stereo not drawn)
6.1 µM

---

# Tested on: Aβ production in SK-N-BE(2) neuroblastoma cells
# procedure summary: Test Example 3: Aβ production inhibition in cell (Aβ40 ELISA, SK-N-BE(2))
# measurement parameters: Homo sapiens, SKNBE2, 6 h, read-out: Test Example 3 IC50, SK-N-BE(2) cells, 6 hours, Aβ40 ELISA normalized by viability
I'd be grateful if you could share measured pIC50 for these entries.
Value format note: pIC50 is -log10 of concentration (mol/L); just state the number.

Give the reported pIC50 for this molecule. NC1=NC2(CO1)c1cc(-c3cncc(F)c3)ccc1OC1(CCC1)C21COC1 (centres unmarked)
6.02

Give the reported pIC50 for this molecule. CC1(C)Oc2ccc(-c3cccc(C(F)(F)F)c3)cc2C2(COC(N)=N2)C12COC2 (centres unmarked)
5.89

Give the reported pIC50 for this molecule. N#Cc1ncccc1-c1ccc2c(c1)C1(COC(N)=N1)C1(COC1)C1(CCC1)O2 (centres unmarked)
5.96

Give the reported pIC50 for this molecule. NC1=NC2(CO1)c1cc(-c3cncnc3)ccc1OCC21COC1 (centres unmarked)
6.09

Give the reported pIC50 for this molecule. N#C/C=C/c1cccc(-c2ccc3c(c2)C2(COC(N)=N2)C2(COC2)C2(CCC2)O3)c1 (centres unmarked)
5.92

Give the reported pIC50 for this molecule. CC1(C)Oc2ccc(-c3c(F)ccc(F)c3F)cc2C2(COC(N)=N2)C12COC2 (centres unmarked)
6.12

Give the reported pIC50 for this molecule. CC#Cc1ccnc(-c2ccc3c(c2)C2(COC(N)=N2)C2(COC2)CO3)c1 (centres unmarked)
6.13

Give the reported pIC50 for this molecule. CC1(C)Oc2ccc(-c3ccc4nonc4c3)cc2C2(COC(N)=N2)C12COC2 (centres unmarked)
6.09

Give the reported pIC50 for this molecule. CC1(C)Oc2ccc(-c3cccc4[nH]ncc34)cc2C2(COC(N)=N2)C12COC2 (centres unmarked)
6.07

Give the reported pIC50 for this molecule. COc1ccc(F)c(-c2ccc3c(c2)C2(COC(N)=N2)C2(COC2)CO3)c1 (centres unmarked)
6.02

Give the reported pIC50 for this molecule. CC(C)Cc1ccc2c(c1)C1(COC(N)=N1)C1(COC1)C1(CCC1)O2 (centres unmarked)
5.85

Attribution: patent US9242973B2
